system-tested: MASP-2 CCP2-SP (Homo sapiens (Human), UniProt O00187)
Sequence (O00187 445-686): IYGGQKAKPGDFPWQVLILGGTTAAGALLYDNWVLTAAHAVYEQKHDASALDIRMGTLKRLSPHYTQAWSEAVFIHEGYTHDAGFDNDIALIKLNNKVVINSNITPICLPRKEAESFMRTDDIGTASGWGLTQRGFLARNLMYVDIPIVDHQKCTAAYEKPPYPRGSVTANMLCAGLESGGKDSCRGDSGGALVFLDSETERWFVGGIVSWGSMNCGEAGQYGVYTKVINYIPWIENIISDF
Sequence (O00187 364-432 partner): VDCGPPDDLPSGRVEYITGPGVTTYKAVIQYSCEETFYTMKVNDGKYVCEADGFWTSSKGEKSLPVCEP
protocol-description: MASP-2 co-crystallization, X-ray crystallography and structure analysis (H-bonds, van der Waals contacts);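 as to Ligand-pharmacophore element distance, pharmacophore element CA2: distance from averaged pharmacophore element to bound ligand; missing value means element absent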
stated-conditions: Table A4-1; element CA2
Structures can show the parent of a compound that is named as a salt.
reported-metric: Ligand-pharmacophore element distance, pharmacophore element CA2
// response body must contain only the number

// below: answered molecules
{"columns": ["molecule", "recorded-result"],
 "data": [
  ["C[C@H](NC(=O)[C@H]1C[C@@H](c2ccccc2)CCN1)C(=O)NCc1cc(Cl)ccc1O.Cl [1078_10]", 0.49],
  ["C[C@H](NC(=O)[C@H]1C[C@H](Cc2ccccc2)CN1)C(=O)NCc1cc(Cl)ccc1-n1cnnn1 [compound 1371, Hydrochloride]", 0.46],
  ["C[C@H](NC(=O)[C@H]1C[C@H](Cc2ccccc2)CN1)C(=O)NCc1ccc(C(=N)N)cc1.Cl.Cl [1306_1]", 0.6],
  ["Cc1nc(N)ccc1CNC(=O)C(C)NC(=O)C1CC(c2cccc3ccccc23)CCN1.Cl.Cl (stereo not shown) [1297_1]", 0.19]
]}

-- ask Entry under review: C[C@H](NC(=O)[C@H]1C[C@@H](c2ccccc2)CCN1)C(=O)NCc1cc(Cl)ccc1O.Cl [1078_11] . Reported Ligand-pharmacophore element distance, pharmacophore element CA2?
-- reply 0.64

-- ask Entry under review: Cc1nc(N)ccc1CNC(=O)[C@H](C)NC(=O)[C@H]1C[C@@H](c2cccc3ccccc23)CCN1.Cl.Cl [1297_5] . Reported Ligand-pharmacophore element distance, pharmacophore element CA2?
-- reply 0.07

-- ask Entry under review: CC(=O)Nc1ccc(CCNC(CCc2ccccc2)C(=O)NC(C)C(=O)NCc2ccc(C(=N)N)cc2)cc1.Cl.Cl (stereo not shown) [1345_1] . Reported Ligand-pharmacophore element distance, pharmacophore element CA2?
-- reply 1.2

====

system-tested: MASP-2 CCP2-SP (Homo sapiens (Human), UniProt O00187)
protocol-description: MASP-2 co-crystallization, X-ray crystallography and structure analysis (H-bonds, van der Waals contacts)
Parameters: unit not given beside the values
stated-conditions: Table A2-1
Counter-ions that a name gives are not always drawn.
Known van der Waals contact distance, MASP-2 HIS 483 atom CD2 of a selection of compounds
// response body must contain only the number

// below: answered compounds
{"columns": ["compound", "recorded-result"],
 "data": [
  ["C[C@H](NC(=O)[C@H](N)CCc1cccc(Cl)c1)C(=O)NCc1ccc(C(=N)N)cc1", 3.74],
  ["C[C@H](NC(=O)c1cc(-c2ccccc2)c[nH]1)C(=O)NCc1ccc(C(=N)N)cc1", 3.61]
]}

-- ask Entry under review: Cc1cccc([C@H]2CN[C@@H](C(=O)N[C@@H](C)C(=O)NCc3ccc(N)nc3C)C2)c1 [compound 1257, Dihydrochloride] . Reported van der Waals contact distance, MASP-2 HIS 483 atom CD2?
-- reply 3.7

-- ask Entry under review: Cc1nc(N)ccc1CNC(=O)[C@H](C)NC(=O)[C@H]1C[C@H](Cc2ccccc2-c2ccccc2)CN1 [compound 1373, Di-trifluoroacetate salt] . Reported van der Waals contact distance, MASP-2 HIS 483 atom CD2?
-- reply 3.71

-- ask Entry under review: O=c1oc(-c2ccccc2[N+](=O)[O-])nc2ccccc12 . Reported van der Waals contact distance, MASP-2 HIS 483 atom CD2?
-- reply 3.72

-- ask Entry under review: C[C@H](NC(=O)[C@@H](CCc1ccccc1)NCCCc1ccc(O)cc1)C(=O)NCc1ccc(C(=N)N)cc1 . Reported van der Waals contact distance, MASP-2 HIS 483 atom CD2?
-- reply 3.75

-- ask Entry under review: Cc1nc(N)ccc1CNC(=O)[C@H](C)NC(=O)[C@H]1C[C@H](Cc2ccccc2)CN1 . Reported van der Waals contact distance, MASP-2 HIS 483 atom CD2?
-- reply 3.71

-- ask Entry under review: CNC(=O)c1ccc2c(=O)n(Cc3ccccc3)c(=O)n(CC(=O)NCc3ccc(C(=N)N)cc3)c2c1 . Reported van der Waals contact distance, MASP-2 HIS 483 atom CD2?
-- reply 3.7

-- ask Entry under review: C[C@H](NC(=O)[C@H]1C[C@@H](c2ccccc2)CCN1)C(=O)NCc1cc(Cl)ccc1O . Reported van der Waals contact distance, MASP-2 HIS 483 atom CD2?
-- reply 3.35

-- ask Entry under review: Cc1nc(N)ccc1CNC(=O)[C@H](C)NC(=O)[C@H]1C[C@@H](c2ccccc2)CCN1 [compound 1253, Dihydrochloride] . Reported van der Waals contact distance, MASP-2 HIS 483 atom CD2?
-- reply 3.74

====

Known Pharmacophore torsion angle a(N1, CA1, O2, H4) of a selection of compounds
system-tested: MASP-2 CCP2-SP (Homo sapiens (Human), UniProt O00187)
protocol-description: MASP-2 co-crystallization, X-ray crystallography and structure analysis (H-bonds, van der Waals contacts)
stated-conditions: Table A7-1; between pharmacophore elements of the bound compound
// response body must contain only the number

// below: answered compounds
{"columns": ["compound", "recorded-result"],
 "data": [
  ["CC(NC(=O)C(CCc1ccccc1)NCc1ccc(C(=O)N2CCOCC2)cc1)C(=O)NCc1ccc(C(=N)N)cc1.Cl.Cl (stereo not shown)", "−11.60"],
  ["C[C@H](NC(=O)[C@H]1C[C@@H](c2ccccc2)CCN1)C(=O)NCc1ccc(C(=N)N)cc1 (stereo in doubt)", "−89.34"],
  ["N=C(N)c1ccc(CNC(=O)[C@@H]2CCN2C(=O)[C@H](NCC(=O)O)C2Cc3ccccc3C2)cc1", "−139.56"]
]}

-- ask Entry under review: C[C@H](NC(=O)[C@H](N)CCc1cc(Cl)cc(Cl)c1)C(=O)NCc1ccc(C(=N)N)cc1 . Reported Pharmacophore torsion angle a(N1, CA1, O2, H4)?
-- reply −132.91

====

system-tested: MASP-2 CCP2-SP (Homo sapiens (Human))
protocol-description: MASP-2 co-crystallization, X-ray crystallography and structure analysis (H-bonds, van der Waals contacts)
stated-conditions: Table A4-1; element C2
reported-metric: Ligand-pharmacophore element distance, pharmacophore element C2

{"columns": ["compound", "recorded-result"],
 "data": [
  ["C[C@H](NC(=O)[C@H]1C[C@H](Cc2ccccc2)CN1)C(=O)NCc1ccc(C(=N)N)cc1.Cl.Cl [1306_1]", 0],
  ["C[C@H](NC(=O)[C@H](N)CCCc1ccccc1)C(=O)NCc1ccc(C(=N)N)cc1.Cl.Cl [1042_1]", 1.81],
  ["Cc1cc(Cl)cc(CNC(=O)[C@H](C)NC(=O)[C@H]2C[C@H](Cc3ccccc3)CN2)c1O [compound 1307]", 0]
]}

-- ask Entry under review: N=C(N)c1ccc(CNC(=O)[C@@H]2CCN2C(=O)[C@H]2Cc3ccccc3CN2)cc1 [compound 1034] . Reported Ligand-pharmacophore element distance, pharmacophore element C2?
-- reply 2.4

-- ask Entry under review: C[C@H](NC(=O)[C@H]1Cc2c([nH]c3ccccc23)CN1)C(=O)NCc1ccc(C(=N)N)cc1.Cl.Cl [1097_2] . Reported Ligand-pharmacophore element distance, pharmacophore element C2?
-- reply 0.72

-- ask Entry under review: Cc1nc(N)ccc1CNC(=O)C(C)NC(=O)C1CC(c2cccc3ccccc23)CCN1.Cl.Cl (stereo not drawn) [1297_3] . Reported Ligand-pharmacophore element distance, pharmacophore element C2?
-- reply 0.28

-- ask Entry under review: N=C(N)c1ccc(CNC(=O)[C@@H]2CCN2C(=O)[C@H](NCC(=O)O)C2Cc3ccccc3C2)cc1 [compound 1129] . Reported Ligand-pharmacophore element distance, pharmacophore element C2?
-- reply 3.15

-- ask Entry under review: C[C@H](NC(=O)[C@H]1C[C@@H](c2ccccc2)CCN1)C(=O)NCc1cc(Cl)ccc1O.Cl [1078_4] . Reported Ligand-pharmacophore element distance, pharmacophore element C2?
-- reply 0.67

-- ask Entry under review: C[C@H](NC(=O)[C@H]1C[C@H](Cc2ccccc2)CN1)C(=O)NCc1cnc2[nH]cc(Cl)c2c1 [compound 1334] . Reported Ligand-pharmacophore element distance, pharmacophore element C2?
-- reply 0

-- ask Entry under review: Cc1nc(N)ccc1CNC(=O)C(C)NC(=O)C1CC(c2cccc3ccccc23)CCN1.Cl.Cl (stereo not drawn) [1297_1] . Reported Ligand-pharmacophore element distance, pharmacophore element C2?
-- reply 0.34

-- ask Entry under review: Cc1nc(N)ccc1CNC(=O)C(C)NC(=O)[C@H]1C[C@H](c2cccc(-c3ccccc3)c2)CN1 (stereo in doubt) [compound 1360] . Reported Ligand-pharmacophore element distance, pharmacophore element C2?
-- reply 0

-- ask Entry under review: C[C@H](NC(=O)[C@H]1C[C@@H](c2ccccc2)CCN1)C(=O)NCc1ccc(C(=N)N)cc1 (stereo in doubt) [compound 1065] . Reported Ligand-pharmacophore element distance, pharmacophore element C2?
-- reply 0.11

====

system-tested: MASP-2 CCP2-SP (Homo sapiens (Human), UniProt O00187)
protocol-description: MASP-2 co-crystallization, X-ray crystallography and structure analysis (H-bonds, van der Waals contacts)
stated-conditions: Table A2-7 continued: CYS 629 (CA)
reported-metric: van der Waals contact distance, MASP-2 amino acid atom to compound atom
// response body must contain only the number

{"columns": ["molecule", "recorded-result"],
 "data": [
  ["CNC(=O)c1ccc2c(=O)n(Cc3ccccc3)c(=O)n(CC(=O)NCc3ccc(C(=N)N)cc3)c2c1 [compound 2018]", 3.87]
]}

-- ask Entry under review: C[C@H](NC(=O)[C@H](N)CCc1cccc(Cl)c1)C(=O)NCc1ccc(C(=N)N)cc1 [compound 1081] . Reported van der Waals contact distance, MASP-2 amino acid atom to compound atom?
-- reply 3.8

-- ask Entry under review: C[C@H](NC(=O)[C@H]1C[C@H](c2ccccc2)CN1)C(=O)NCc1ccc2c(N)nccc2c1 [compound 1090] . Reported van der Waals contact distance, MASP-2 amino acid atom to compound atom?
-- reply 3.89

-- ask Entry under review: C[C@H](NC(=O)[C@H](N)CCc1ccccc1)C(=O)NCc1ccc(C(=N)N)cc1 [compound 1024] . Reported van der Waals contact distance, MASP-2 amino acid atom to compound atom?
-- reply 3.75
